# Assay system: FAMA (Arabidopsis thaliana)
# Construct: ΔNFAMA (190-414); made in house; host or cells: E. coli BL21
# Sequence (Q56YJ8 190-414): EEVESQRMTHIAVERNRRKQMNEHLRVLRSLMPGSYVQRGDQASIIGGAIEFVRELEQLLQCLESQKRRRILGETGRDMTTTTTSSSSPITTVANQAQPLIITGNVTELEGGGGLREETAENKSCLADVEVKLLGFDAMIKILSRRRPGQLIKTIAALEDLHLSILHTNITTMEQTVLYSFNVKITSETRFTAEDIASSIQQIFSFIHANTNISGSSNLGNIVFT
# Run description: ITC direct binding
# Design: species or system A. thaliana
Property label: Kd (µM)
Record the value in µM, omitting the unit from your answer.

Ask: Give the reported Kd for O=C1C(c2ccccc2)=NC(NS(=O)(=O)c2ccccc2)(c2ccccc2)N1S(=O)(=O)c1ccccc1 (stereo not shown) (system: FAMA (Arabidopsis thaliana)).
Reply: 80.4

###

# Assay system: MUTE_ACTLE162A_E163A (Arabidopsis thaliana, UniProt Q9M8K6, E162A/E163A)
# Construct: MUTE-ACTL (114-202); made in house; host or cells: E. coli BL21
# Sequence (Q9M8K6 114-202 E162A/E163A): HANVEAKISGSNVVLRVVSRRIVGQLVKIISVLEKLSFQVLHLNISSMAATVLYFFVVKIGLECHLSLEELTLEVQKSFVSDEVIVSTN
# Run description: BLI direct binding
# Design: species or system A. thaliana
# Test parameters: BLI steady state; MUTE_ACTL E162A_E163A; read-out: KD (SS)
Property label: Kd (µM)
Record the value in µM, omitting the unit from your answer.

Ask: Endpoint output: Kd of O=C1C(c2ccccc2)=NC(NS(=O)(=O)c2ccccc2)(c2ccccc2)N1S(=O)(=O)c1ccccc1 (stereo not shown) . Value?
Reply: 125

Reference for the values: paper PMC11500415
